targetUnderTest: AKT3 (Homo sapiens, UniProt Q9Y243)
Sequence (Q9Y243 whole entry): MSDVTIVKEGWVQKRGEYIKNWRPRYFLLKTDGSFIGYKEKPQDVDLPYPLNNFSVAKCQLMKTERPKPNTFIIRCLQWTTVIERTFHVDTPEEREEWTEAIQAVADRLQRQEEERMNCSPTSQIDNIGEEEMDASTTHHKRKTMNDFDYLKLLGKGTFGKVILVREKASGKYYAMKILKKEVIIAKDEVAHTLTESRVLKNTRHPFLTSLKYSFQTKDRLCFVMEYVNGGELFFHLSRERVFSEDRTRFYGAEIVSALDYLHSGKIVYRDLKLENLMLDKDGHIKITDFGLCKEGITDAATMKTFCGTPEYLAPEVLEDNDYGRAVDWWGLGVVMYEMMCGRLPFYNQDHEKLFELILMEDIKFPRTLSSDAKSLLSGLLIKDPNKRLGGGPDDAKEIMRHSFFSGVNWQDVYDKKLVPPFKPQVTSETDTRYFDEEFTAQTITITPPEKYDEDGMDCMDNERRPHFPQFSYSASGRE
assayNotes: In vitro inhibition of AKT3 using a filter assay (AKT3 pep., Ex. C3)
Format: biochemical
assayContext: histone H2B substrate, filter assay, 25° C. 3 hrs; read-out: AKT3 pep. (Ex. C3): pIC50 values (converted)
Method: In Vitro Inhibition of AKT3 using a Filter Assay In the present AKT3 filter assay, a kinase substrate consisting of a fragment of histone H2B, is incubated with the aforementioned protein in the presence of (^33P) radiolabeled ATP. The (^33P)phosporylated substrate binds to a phosphocellulose cation exchange filter, that can easily be removed from the incubation mixture and counted using a microplate scintillation counter. […]
measuredParameter: IC50 (nM)
Numbers only, in nM.

Consider the worked cases shown below.
>  <smiles>
Cn1c(=O)nc2n(C3CCCC3)nc(-c3ccc(-c4cccc(CN5CCOCC5)c4)o3)nc-2c1=O

>  <measuredParameter>
IC50

>  <endpointResult>
107

$$$$
>  <smiles>
Cn1c(=O)nc2n(C3CCCC3)nc(-c3ccc(-c4ccc(CN5CCC(N)CC5)cc4)o3)nc-2c1=O

>  <measuredParameter>
IC50

>  <endpointResult>
51.8

$$$$
>  <smiles>
Cn1c(=O)nc2n(C3CCCC3)nc(-c3ccc(-c4ccc(CNC(CO)(CO)CO)cc4)o3)nc-2c1=O

>  <measuredParameter>
IC50

>  <endpointResult>
80.2

$$$$

Here is the next item to consider.
The reported IC50 of the compound Cn1nc(-c2ccc(-c3cccc(CNS(C)(=O)=O)c3)o2)nc2c(=O)n(C)c(=O)nc1-2 was 72.6
